Let's go through some Kd measurements on AbaPirA (Acinetobacter baumannii) together.
Sequence (D0C8V9 25-754): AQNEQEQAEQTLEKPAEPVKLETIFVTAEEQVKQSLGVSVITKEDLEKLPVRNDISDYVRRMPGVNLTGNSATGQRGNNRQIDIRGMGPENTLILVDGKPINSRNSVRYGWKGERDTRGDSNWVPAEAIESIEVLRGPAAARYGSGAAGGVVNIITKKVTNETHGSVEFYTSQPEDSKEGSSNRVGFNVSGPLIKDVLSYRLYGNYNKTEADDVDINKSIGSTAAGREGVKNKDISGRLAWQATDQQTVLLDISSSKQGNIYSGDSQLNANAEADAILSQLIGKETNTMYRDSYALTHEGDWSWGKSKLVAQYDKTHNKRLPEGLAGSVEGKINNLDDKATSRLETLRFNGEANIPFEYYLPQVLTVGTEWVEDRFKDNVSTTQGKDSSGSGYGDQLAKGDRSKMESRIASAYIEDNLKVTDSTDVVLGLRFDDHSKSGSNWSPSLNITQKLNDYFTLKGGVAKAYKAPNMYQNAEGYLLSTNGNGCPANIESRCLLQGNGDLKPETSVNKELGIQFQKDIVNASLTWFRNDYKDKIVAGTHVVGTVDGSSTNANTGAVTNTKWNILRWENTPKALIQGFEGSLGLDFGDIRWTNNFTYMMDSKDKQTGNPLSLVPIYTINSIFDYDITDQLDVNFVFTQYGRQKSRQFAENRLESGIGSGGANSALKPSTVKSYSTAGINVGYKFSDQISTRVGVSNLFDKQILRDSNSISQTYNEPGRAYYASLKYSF
Lab book: enter the figure in µM, no units written.

Observe how each entry below is paired with its result.
Compound: O=C(O)c1cccc(O)c1O.O=C(O)c1cccc(O)c1O.O=C(O)c1cccc(O)c1O.[Fe+3]
Kd, µM: 9.4

Compound: O=C(N[C@@H](CO)C(=O)O)c1cccc(O)c1O.O=C(N[C@@H](CO)C(=O)O)c1cccc(O)c1O.O=C(N[C@@H](CO)C(=O)O)c1cccc(O)c1O.[Fe+3]
Kd, µM: 161

Ask | Notebook: pull reported Kd for AbaPirA (Acinetobacter baumannii), entry CC(C)(O/N=C(\C(=O)N[C@@H]1C(=O)N2C(C(=O)O)=C(C[N+]3(CCNC(=O)c4ccc(O)c(O)c4Cl)CCCC3)CS[C@H]12)c1csc(N)n1)C(=O)O.[Fe+3]
Reply | 6.2

---

Tested Target: AbaPiuA (Acinetobacter baumannii, UniProt D0CAH3)
Sequence (D0CAH3 29-743): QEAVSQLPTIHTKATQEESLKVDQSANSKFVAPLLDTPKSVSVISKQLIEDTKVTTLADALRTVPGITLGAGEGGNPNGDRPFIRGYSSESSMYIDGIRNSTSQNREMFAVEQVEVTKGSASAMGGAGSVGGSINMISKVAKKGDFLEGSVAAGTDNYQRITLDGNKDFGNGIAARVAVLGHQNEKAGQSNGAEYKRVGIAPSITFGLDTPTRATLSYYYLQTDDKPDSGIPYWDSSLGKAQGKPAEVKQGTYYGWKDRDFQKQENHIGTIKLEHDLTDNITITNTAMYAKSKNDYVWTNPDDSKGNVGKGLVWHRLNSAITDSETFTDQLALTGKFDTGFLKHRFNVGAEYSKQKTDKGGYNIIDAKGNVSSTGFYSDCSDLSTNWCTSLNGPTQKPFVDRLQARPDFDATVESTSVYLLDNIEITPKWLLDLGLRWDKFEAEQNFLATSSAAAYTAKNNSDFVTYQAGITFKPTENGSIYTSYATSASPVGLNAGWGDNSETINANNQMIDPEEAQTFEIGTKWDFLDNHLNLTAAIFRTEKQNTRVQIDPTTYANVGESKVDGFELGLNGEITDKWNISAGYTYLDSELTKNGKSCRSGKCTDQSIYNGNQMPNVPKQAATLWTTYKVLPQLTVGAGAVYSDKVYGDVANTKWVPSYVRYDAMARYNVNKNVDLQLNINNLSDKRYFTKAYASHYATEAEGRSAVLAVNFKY
Test Settings: read-out: apparent KD; AbaPiuA sensor; NB = no binding
Measure: pKd
Remember the convention: pKd equals -log10 of concentration in molar.

Ask | What value of pKd has been reported for the following compound? O=C(O)c1cccc(O)c1O.O=C(O)c1cccc(O)c1O.O=C(O)c1cccc(O)c1O.[Fe+3] [FeDHBA]
Reply | 4.82

---

Tested Target: EcoCir (Escherichia coli, UniProt P17315)
Sequence (P17315 26-663): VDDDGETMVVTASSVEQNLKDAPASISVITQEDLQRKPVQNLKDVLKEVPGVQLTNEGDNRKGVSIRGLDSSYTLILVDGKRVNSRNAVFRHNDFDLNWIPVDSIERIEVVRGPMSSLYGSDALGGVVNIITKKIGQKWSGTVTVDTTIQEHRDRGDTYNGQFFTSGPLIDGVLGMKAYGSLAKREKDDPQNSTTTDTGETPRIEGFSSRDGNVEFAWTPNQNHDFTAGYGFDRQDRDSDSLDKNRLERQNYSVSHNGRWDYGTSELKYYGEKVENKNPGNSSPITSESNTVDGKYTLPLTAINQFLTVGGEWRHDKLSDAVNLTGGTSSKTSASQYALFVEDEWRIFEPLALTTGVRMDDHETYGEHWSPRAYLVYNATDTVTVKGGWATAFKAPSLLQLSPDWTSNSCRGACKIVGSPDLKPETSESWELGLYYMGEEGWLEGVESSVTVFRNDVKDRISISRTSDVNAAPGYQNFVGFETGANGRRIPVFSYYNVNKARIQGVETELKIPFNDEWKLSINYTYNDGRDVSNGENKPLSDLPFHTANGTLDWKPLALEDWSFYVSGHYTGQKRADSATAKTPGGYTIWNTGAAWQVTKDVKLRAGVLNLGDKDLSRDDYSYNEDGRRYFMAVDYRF
Assay type: binding
Test Settings: Cir
Measure: Kd (nM)
Write down the numeric answer in nM and omit the unit.

Ask | Field: Kd (EcoCir (Escherichia coli, UniProt P17315)). Entry: CC(C)(O/N=C(\C(=O)N[C@@H]1C(=O)N2C(C(=O)O)=C(C[N+]3(CCNC(=O)c4ccc(O)c(O)c4Cl)CCCC3)CS[C@H]12)c1csc(N)n1)C(=O)O.[Fe+3]
Reply | 60
